// values below are reported pEC50
Target: NS3-NS4 (Hepatitis C virus genotype 1a, UniProt P27958)
Sequence (P27958 1027-1657): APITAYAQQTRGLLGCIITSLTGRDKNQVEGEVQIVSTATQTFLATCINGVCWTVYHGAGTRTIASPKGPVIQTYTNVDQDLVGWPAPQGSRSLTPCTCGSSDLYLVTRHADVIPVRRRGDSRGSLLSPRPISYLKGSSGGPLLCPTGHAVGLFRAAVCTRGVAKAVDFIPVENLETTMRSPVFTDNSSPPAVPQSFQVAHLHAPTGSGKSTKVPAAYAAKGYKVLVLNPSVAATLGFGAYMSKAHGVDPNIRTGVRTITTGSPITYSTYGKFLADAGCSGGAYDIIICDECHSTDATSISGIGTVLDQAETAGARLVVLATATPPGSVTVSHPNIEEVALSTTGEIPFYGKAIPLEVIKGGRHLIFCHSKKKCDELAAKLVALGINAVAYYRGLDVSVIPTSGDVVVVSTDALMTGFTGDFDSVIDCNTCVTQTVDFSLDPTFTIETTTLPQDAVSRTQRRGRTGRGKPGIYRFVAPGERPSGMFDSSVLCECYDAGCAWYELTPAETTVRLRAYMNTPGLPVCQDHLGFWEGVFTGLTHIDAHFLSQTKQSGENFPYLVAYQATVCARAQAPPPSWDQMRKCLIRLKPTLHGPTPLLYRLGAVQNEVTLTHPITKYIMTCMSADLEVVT
Sequence (P27958 1658-1711): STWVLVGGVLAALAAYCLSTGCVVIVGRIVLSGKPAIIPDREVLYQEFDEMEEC
Assay: cell-based
Settings: EC50, NS3-NS4 activity
pEC50: −log10 of the molar value.

{"compound": "CC(C)CONC(=O)[C@@]12C[C@H]1CCCCCCC[C@H](NC(=O)OC(C)(C)C)C(=O)N1C[C@H](OC(=O)N3Cc4cccc(F)c4C3)C[C@H]1C(=O)N2", "pEC50": "> 7.00"}
{"compound": "CC(C)(C)OC(=O)N[C@H]1CCOCC/C=C\\[C@@H]2C[C@@]2(C(=O)NS(=O)(=O)c2ccc(Cl)cc2)NC(=O)[C@@H]2C[C@@H](OC(=O)N3Cc4cccc(Cl)c4C3)CN2C1=O", "pEC50": "> 7.00"}
{"compound": "O=C(N[C@H]1CCCCC/C=C\\[C@@H]2C[C@@]2(C(=O)NS(=O)(=O)c2ccc(Cl)cc2)NC(=O)[C@@H]2C[C@@H](OC(=O)N3Cc4cccc(F)c4C3)CN2C1=O)OC1CCOC1 (some centres unmarked)", "pEC50": "> 7.00"}
{"compound": "CC(C)(C)OC(=O)N[C@H]1CCCCC/C=C\\[C@@H]2C[C@@]2(C(=O)NS(=O)(=O)Cc2ccc(F)c(F)c2)NC(=O)[C@@H]2C[C@@H](OC(=O)N3Cc4cccc(F)c4C3)CN2C1=O", "pEC50": "6.00 to 7.00"}
{"compound": "CCC(C)(C)OC(=O)N[C@H]1CCCCC/C=C\\[C@@H]2C[C@@]2(C(=O)NS(=O)(=O)C2CC2)NC(=O)[C@@H]2C[C@@H](OC(=O)N3Cc4cccc(F)c4C3)CN2C1=O [Compound 438]", "pEC50": "6.00 to 7.00"}

====

Assay: Single ascending dose study, fasted and fed: safety and non-compartmental plasma PK
Type: in vivo, healthy volunteers (human)
Settings: human, plasma, oral, 400 mg, median; single 400 mg dose (Fed); plasma; N=10; read-out: T1/2 (converted)

{"smilesCode": "CC(C)(C)OC(=O)N[C@H]1CCCCC/C=C\\[C@@H]2C[C@@]2(C(=O)NS(=O)(=O)C2CC2)NC(=O)[C@@H]2C[C@@H](OC(=O)N3Cc4cccc(F)c4C3)CN2C1=O", "measurementUnits": "min", "half-life": 104}

====

Target: NS3-NS4 (Hepatitis C virus genotype 1a, UniProt P27958)
Assay: cell-based
Settings: EC50, NS3-NS4 activity

{"smilesCode": "CC(C)(C)OC(=O)N[C@H]1CCCCCCC[C@@H]2C[C@@]2(C(=O)NOCC2CC2)NC(=O)[C@@H]2C[C@@H](OC(=O)N3Cc4cccc(F)c4C3)CN2C1=O", "EC50": "< 100 nM"}
{"smilesCode": "CC(C)C1(S(=O)(=O)NC(=O)[C@@]23C[C@H]2CCCCCCC[C@H](NC(=O)OC(C)(C)C)C(=O)N2C[C@H](OC(=O)N4Cc5cccc(F)c5C4)C[C@H]2C(=O)N3)CC1", "EC50": "< 100 nM"}
{"smilesCode": "CC(C)(C)OC(=O)N[C@H]1CCCCC/C=C\\[C@@H]2C[C@@]2(C(=O)NS(=O)(=O)c2ccccc2F)NC(=O)[C@@H]2C[C@@H](OC(=O)N3Cc4cccc(F)c4C3)CN2C1=O", "EC50": "< 100 nM"}
{"smilesCode": "CC(C)(C)OC(=O)N[C@H]1CCCCC/C=C\\[C@@H]2C[C@@]2(C(=O)NS(=O)(=O)c2c(F)cccc2F)NC(=O)[C@@H]2C[C@@H](OC(=O)N3Cc4ccccc4C3)CN2C1=O", "EC50": "100 to 1000 nM"}
{"smilesCode": "Cc1nc(N[C@H]2CCCCC/C=C\\[C@@H]3C[C@@]3(C(=O)NS(=O)(=O)C3CC3)NC(=O)[C@@H]3C[C@@H](OC(=O)N4Cc5cccc(F)c5C4)CN3C2=O)sc1C", "EC50": "< 100 nM"}

====

As a worked illustration, we turn to pIC50 data collected for NS3-NS4 (Hepatitis C virus genotype 1a, UniProt P27958).
pIC50: −log10 of the molar value.

{"smilesCode": "O=C1N[C@]2(C(=O)NS(=O)(=O)C3CC3)C[C@H]2/C=C\\CCCCC[C@H](Nc2nc(-c3cccc(F)c3)cs2)C(=O)N2C[C@H](OC(=O)N3Cc4cccc(F)c4C3)C[C@@H]12", "targetOrTestSystem": "NS3-NS4 (Hepatitis C virus genotype 1a, UniProt P27958)", "pIC50": "> 7.00"}
{"smilesCode": "Cc1cc(C)cc(ONC(=O)[C@@]23C[C@H]2/C=C\\CCCCC[C@H](NC(=O)OC(C)(C)C)C(=O)N2C[C@H](OC(=O)N4Cc5cccc(F)c5C4)C[C@H]2C(=O)N3)c1", "targetOrTestSystem": "NS3-NS4 (Hepatitis C virus genotype 1a, UniProt P27958)", "pIC50": "> 7.00"}
{"smilesCode": "O=C1N[C@]2(C(=O)NS(=O)(=O)C3CC3)C[C@H]2/C=C\\CCCCC[C@H](Nc2nc(-c3ccc(C(F)(F)F)cc3)cs2)C(=O)N2C[C@H](OC(=O)N3Cc4cccc(F)c4C3)C[C@@H]12", "targetOrTestSystem": "NS3-NS4 (Hepatitis C virus genotype 1a, UniProt P27958)", "pIC50": "> 7.00"}

====

Reported pEC50 values for a set of compounds
Target: NS3-NS4 (Hepatitis C virus genotype 1a, UniProt P27958)
Assay: cell-based
Conditions: EC50, NS3-NS4 activity
pEC50: −log10 of the molar value.
resultType: pEC50

{"smilesCode": "CC(C)(C)OC(=O)N[C@H]1CCCCC/C=C\\[C@@H]2C[C@@]2(C(=O)NS(=O)(=O)c2cc(Cl)c(Cl)s2)NC(=O)[C@@H]2C[C@@H](OC(=O)N3Cc4cccc(F)c4C3)CN2C1=O", "targetOrTestSystem": "NS3-NS4 (Hepatitis C virus genotype 1a, UniProt P27958)", "recordedValue": "6.00 to 7.00"}
{"smilesCode": "CC(C)ONC(=O)[C@@]12C[C@H]1/C=C\\CCCCC[C@H](NC(=O)OC(C)(C)C)C(=O)N1C[C@H](OC(=O)N3Cc4cccc(F)c4C3)C[C@H]1C(=O)N2", "targetOrTestSystem": "NS3-NS4 (Hepatitis C virus genotype 1a, UniProt P27958)", "recordedValue": "> 7.00"}
{"smilesCode": "CC(C)(C)OC(=O)N[C@H]1CCCCC[C@H]2C[C@H]2[C@@H]2C[C@@]2(C(=O)NS(=O)(=O)C2CC2)NC(=O)[C@@H]2C[C@@H](OC(=O)N3Cc4cccc(F)c4C3)CN2C1=O", "targetOrTestSystem": "NS3-NS4 (Hepatitis C virus genotype 1a, UniProt P27958)", "recordedValue": "> 7.00"}

====

Assay: Single ascending dose study, fasted and fed: safety and non-compartmental plasma PK
Type: in vivo, healthy volunteers (human)
Settings: human, plasma, oral, 1600 mg, Harmonic Mean of 10 subjects; single 1600 mg dose, Fed; read-out: Cmax

{"compound": "CC(C)(C)OC(=O)N[C@H]1CCCCC/C=C\\[C@@H]2C[C@@]2(C(=O)NS(=O)(=O)C2CC2)NC(=O)[C@@H]2C[C@@H](OC(=O)N3Cc4cccc(F)c4C3)CN2C1=O [ITMN-191]", "Cmax": "326 ng/mL"}

====

Experiment: Single ascending dose study, fasted and fed: safety and non-compartmental plasma PK
Assay type: in vivo, healthy volunteers (human)
Details: human, plasma, oral, 100 mg, median; single 100 mg dose, fasting state; plasma; N=8; read-out: AUC0-inf
resultType: AUC0-inf (ng·h/mL)

{"smilesCode": "CC(C)(C)OC(=O)N[C@H]1CCCCC/C=C\\[C@@H]2C[C@@]2(C(=O)NS(=O)(=O)C2CC2)NC(=O)[C@@H]2C[C@@H](OC(=O)N3Cc4cccc(F)c4C3)CN2C1=O", "recordedValue": 20.4}

====

Experiment: Single ascending dose study, fasted and fed: safety and non-compartmental plasma PK
Assay type: in vivo, healthy volunteers (human)
Details: human, plasma, oral, 400 mg, median; single 400 mg dose (Fed); plasma; N=10; read-out: Cmax
resultType: Cmax (ng/mL)

{"smilesCode": "CC(C)(C)OC(=O)N[C@H]1CCCCC/C=C\\[C@@H]2C[C@@]2(C(=O)NS(=O)(=O)C2CC2)NC(=O)[C@@H]2C[C@@H](OC(=O)N3Cc4cccc(F)c4C3)CN2C1=O", "measurementUnits": "ng/mL", "recordedValue": 56.6}

====

Listed here are compounds together with their documented pEC50.
Target: NS3-NS4 (Hepatitis C virus genotype 1a, UniProt P27958)
Test: cell-based
Conditions: EC50, NS3-NS4 activity
pEC50: −log10 of the molar value.

{"smilesCode": "CC(C)(C)OC(=O)N[C@H]1CCCCCCC[C@@H]2C[C@@]2(C(=O)NS(=O)(=O)c2ccccc2Cl)NC(=O)[C@@H]2C[C@@H](OC(=O)N3Cc4cccc(F)c4C3)CN2C1=O", "pEC50": "> 7.00"}
{"smilesCode": "CC(C)(C)OC(=O)N[C@H]1CCCCCCC[C@@H]2C[C@@]2(C(=O)NOc2ccc(-c3ccccc3)cc2)NC(=O)[C@@H]2C[C@@H](OC(=O)N3Cc4cccc(F)c4C3)CN2C1=O", "pEC50": "5.00 to 6.00"}
{"smilesCode": "COc1cccc(ONC(=O)[C@@]23C[C@H]2CCCCCCC[C@H](NC(=O)OC(C)(C)C)C(=O)N2C[C@H](OC(=O)N4Cc5cccc(F)c5C4)C[C@H]2C(=O)N3)c1", "pEC50": "5.00 to 6.00"}
{"smilesCode": "CONC(=O)[C@@]12C[C@H]1/C=C\\CCCCC[C@H](NC(=O)OC(C)(C)C)C(=O)N1C[C@H](OC(=O)N3Cc4cccc(F)c4C3)C[C@H]1C(=O)N2", "pEC50": "5.00 to 6.00"}
{"smilesCode": "Cc1ccc(C)c(CS(=O)(=O)NC(=O)[C@@]23C[C@H]2CCCCCCC[C@H](NC(=O)OC(C)(C)C)C(=O)N2C[C@H](OC(=O)N4Cc5cccc(F)c5C4)C[C@H]2C(=O)N3)c1", "pEC50": "> 7.00"}
{"smilesCode": "CC(C)CS(=O)(=O)NC(=O)[C@@]12C[C@H]1CCCCCCC[C@H](NC(=O)OC(C)(C)C)C(=O)N1C[C@H](OC(=O)N3Cc4cccc(F)c4C3)C[C@H]1C(=O)N2", "pEC50": "> 7.00"}
{"smilesCode": "CC(C)c1cnc(N[C@H]2CCCCC/C=C\\[C@@H]3C[C@@]3(C(=O)NS(=O)(=O)C3CC3)NC(=O)[C@@H]3C[C@@H](OC(=O)N4Cc5cccc(F)c5C4)CN3C2=O)s1", "pEC50": "> 7.00"}
{"smilesCode": "Cc1ccccc1S(=O)(=O)NC(=O)[C@@]12C[C@H]1/C=C\\CCCCC[C@H](NC(=O)OC1CCC1)C(=O)N1C[C@H](OC(=O)N3Cc4cccc(F)c4C3)C[C@H]1C(=O)N2", "pEC50": "> 7.00"}
{"smilesCode": "O=C1N[C@]2(C(=O)NS(=O)(=O)C3CC3)C[C@H]2/C=C\\CCC(F)(F)CC[C@H](NC(=O)C2(C(F)(F)F)CC2)C(=O)N2C[C@H](OC(=O)N3Cc4cccc(F)c4C3)C[C@@H]12", "pEC50": "> 7.00"}
{"smilesCode": "CC(C)(C)OC(=O)N[C@H]1CCCCC/C=C\\[C@@H]2C[C@@]2(C(=O)NS(=O)(=O)c2ccc(Cl)cc2)NC(=O)[C@@H]2C[C@@H](OC(=O)N3Cc4cccc(F)c4C3)CN2C1=O", "pEC50": "> 7.00"}
